- ASSAYED_TARGET: T1, hTUT4 CCHC-ZnF2 (Homo sapiens, UniProt Q5TAX3 1293-1321)
- T1 chain: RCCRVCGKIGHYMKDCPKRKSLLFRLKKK
- METHOD_DESCRIPTION: BLI; NMR: 10 mM Tris-HCl pH 7.4, 100 mM NaCl, 0.5 mM TCEP, 10 uM ZnCl2, 25 C, 50 uM protein; BLI: streptavidin sensors, 1-8 uM protein, buffer not in material
- EXPERIMENTAL_PARAMETERS: protein: recombinant; tags: N-terminal His6 removed by TEV
pKd: −log10 of the molar value.
ENDPOINT: pKd

UGAGGUAGUAGUUUGUGCUGUU (ssRNA) [Let-7i miRNA] = ~5.40

Query: What does the data say about its pKd? Entry: UUUGGA (ssRNA) [UUUGGA RNA (short RNA with SIA sequence)]
Response: ~5.40
